Assay: ATG_XTT_Cytotoxicity: Cytotoxicity Assessment in the Attagene TRANS-FACTORIAL HepG2 Assay (AID 2283584)
Description: ATG_XTT_Cytotoxicity is a cell-based, single-readout assay that uses HepG2, a human liver cell line, with measurements taken at 24 hours after chemical dosing in a 24-well plate.ATG_XTT_Cytotoxicity is one of one assay component(s) measured or calculated from the ATG_XTT_Cytotoxicity assay. […] This assay endpoint, ATG_XTT_Cytotoxicity, was analyzed in the positive analysis fitting direction relative to DMSO as the negative control and baseline of activity. […]
Inconclusive results are not listed. Calls of active or inactive are those of the source. The calls were made as follows: active = hit-call score of the fitted dose curve at least 0.9, where 1 is the maximum; inconclusive = response in the unintended direction; inactive = score below 0.9.
Parameter call: string, one of class 1 (active), class 0 (inactive)

Nc1ccc([N+](=O)[O-])cc1N ... class 0
CNC(=N[N+](=O)[O-])NCC1CCOC1 (centres undefined) ... class 0
O=C(O)CCCc1ccc(N(CCCl)CCCl)cc1 ... class 0
O=C(CCl)c1ccccc1 ... class 0
O=C=Nc1ccccc1 ... class 0

Called result for "BrCBr" class 0

Called result for O=P1(NCCCl)OCCCN1CCCl (centres undefined) class 0

Called result for "O=S(=O)(O)O" class 0

* * *

test: CCTE_Shafer_MEA_dev_burst_duration_mean: CCTE's Neural Network Formation Assay for Mean Burst Duration, Shafer Lab (AID 2284045)
The source made the active and inactive calls. How the source made its calls: active means hit-call score of the fitted dose curve at least 0.9, where 1 is the maximum; inactive means score below 0.9.
Parameter call: string, one of t for active, f for inactive

Consider the following illustrative entries.
Cc1ccc(OP(=O)(Oc2ccc(C)cc2)Oc2ccc(C)cc2)cc1 (tested in a mixture with another compound) ... f
CN1C(=O)CN=C(c2ccccc2)c2cc(Cl)ccc21 ... f
CCOP(=S)(OCC)SCS(=O)C(C)(C)C (stereo unspecified) ... f
[CH3][Hg][Cl] ... t
COC(=O)[C@H]1[C@@H](OC(=O)c2ccccc2)C[C@@H]2CC[C@H]1N2C ... f

Called result for "O=C(O)CNCP(=O)(O)O" f

Called result for "COP(=O)(OC)SCN1C(=O)c2ccccc2C1=O" f

Called result for "CP(=O)(O)CC[C@H](N)C(=O)O" f

Called result for "CC1(C)[C@H](C=C(Cl)Cl)[C@@H]1C(=O)O[C@@H](C#N)c1cccc(Oc2ccccc2)c1" f

Called result for CCOP(=O)(OCC)OC(Cl)C(Cl)(Cl)Cl (stereo unspecified) t

Called result for "C[n+]1ccc(-c2ccccc2)cc1" f

* * *

read-out: Urokinase-type plasminogen activator receptor (uPAR), PLAUR (gene 5329); assay: BSK_CASM3C_uPAR: BioMAP Diversity Plus: CASM3C Assay for Urokinase-type plasminogen activator receptor (uPAR) Biomarker Activity (AID 2283054); conditions: primary human coronary artery smooth muscle cells; actives raise or lower the signal;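 also: cell-surface uPAR protein level quantified by ELISA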
Active and inactive are the calls of the source. Rule for the calls: active = hit-call score of the fitted dose curve at least 0.9, where 1 is the maximum; inactive = score below 0.9.
MEASURED ENDPOINT: outcome

C=CC(=O)OCC(CC)CCCC (stereo not drawn) ... inactive
CC(C)CCCCCCCOC(=O)c1ccccc1C(=O)OCCCCCCCC(C)C ... inactive
CC(C)CCCCCCCOP(=O)(Oc1ccccc1)Oc1ccccc1 ... inactive

* * *

assay: CCTE_Shafer_MEA_acute_spike_number: CCTE's Neural Acute Assay for Total Number of Spikes, Shafer Lab (AID 2284008)
Active and inactive are the calls of the source. Rule for the calls: active = hit-call score of the fitted dose curve at least 0.9, where 1 is the maximum; inactive = score below 0.9.
Parameter call: string, one of Yes for active, No for inactive

Consider the following illustrative entries.
[Cd+2].[Cl-].[Cl-] ... No
CC1(C)[C@@H](C=C(Cl)Cl)[C@@H]1C(=O)O[C@@H](C#N)c1ccc(F)c(Oc2ccccc2)c1 ... Yes

Called result for Cc1ccc(OP(=O)(Oc2ccc(C)cc2)Oc2ccc(C)cc2)cc1 (tested in a mixture with another compound) Yes

* * *

read-out: E-selectin (Homo sapiens) (UniProt P16581); assay: BSK_SAg_Eselectin: BioMAP Diversity Plus: SAg Assay for Eselectin Biomarker Activity (AID 2283091); conditions: primary human HUVEC with PBMC; actives raise or lower the signal
Sequence (P16581 whole entry, looked up): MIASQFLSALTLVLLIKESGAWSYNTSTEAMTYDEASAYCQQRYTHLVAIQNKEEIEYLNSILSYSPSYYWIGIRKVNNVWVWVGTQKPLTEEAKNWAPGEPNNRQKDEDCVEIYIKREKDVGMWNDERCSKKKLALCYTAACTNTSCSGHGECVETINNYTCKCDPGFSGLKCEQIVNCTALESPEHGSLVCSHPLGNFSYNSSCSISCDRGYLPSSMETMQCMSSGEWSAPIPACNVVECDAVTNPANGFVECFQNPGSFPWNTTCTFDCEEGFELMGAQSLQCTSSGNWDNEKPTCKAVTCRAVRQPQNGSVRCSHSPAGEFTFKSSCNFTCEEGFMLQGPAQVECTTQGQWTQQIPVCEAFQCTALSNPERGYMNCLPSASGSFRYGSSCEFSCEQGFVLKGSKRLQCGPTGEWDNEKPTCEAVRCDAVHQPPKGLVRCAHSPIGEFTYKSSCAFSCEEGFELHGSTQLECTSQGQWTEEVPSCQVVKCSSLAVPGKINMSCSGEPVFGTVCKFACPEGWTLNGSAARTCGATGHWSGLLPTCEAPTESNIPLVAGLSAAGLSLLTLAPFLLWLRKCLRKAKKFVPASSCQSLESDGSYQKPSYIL
Active and inactive are the calls of the source. Rule for the calls: active = hit-call score of the fitted dose curve at least 0.9, where 1 is the maximum; inactive = score below 0.9.
Parameter call: string, one of active, inactive

Consider the following illustrative entries.
O=C1C(Cl)=C(Cl)C(=O)C(Cl)=C1Cl ... active
CNC(=O)Oc1cc(C)c(SC)c(C)c1 ... inactive
CCCOC(=O)c1ccccc1C(=O)OCCC ... inactive
O=S(=O)(c1ccccc1)c1ccccc1 ... inactive
COC(C)(C)CCC[C@H](C)C/C=C/C(C)=C/C(=O)OC(C)C ... active
CCCCCCCCCCCC#N ... active

Called result for "CCCC[N+](CCCC)(CCCC)CCCC" inactive

Called result for "N#CCCCCC#N" inactive

Called result for C=CC(=O)OCC(CC)CCCC (stereo unspecified) inactive

Called result for Cc1ccc(OP(=O)(Oc2ccc(C)cc2)Oc2ccc(C)cc2)cc1 (tested in a mixture with another compound) active

Called result for "O=[N+]([O-])c1ccc(Cl)cc1" inactive

* * *

Target: Estrogen receptor (Homo sapiens) (UniProt P03372)
Sequence (P03372 whole entry, looked up): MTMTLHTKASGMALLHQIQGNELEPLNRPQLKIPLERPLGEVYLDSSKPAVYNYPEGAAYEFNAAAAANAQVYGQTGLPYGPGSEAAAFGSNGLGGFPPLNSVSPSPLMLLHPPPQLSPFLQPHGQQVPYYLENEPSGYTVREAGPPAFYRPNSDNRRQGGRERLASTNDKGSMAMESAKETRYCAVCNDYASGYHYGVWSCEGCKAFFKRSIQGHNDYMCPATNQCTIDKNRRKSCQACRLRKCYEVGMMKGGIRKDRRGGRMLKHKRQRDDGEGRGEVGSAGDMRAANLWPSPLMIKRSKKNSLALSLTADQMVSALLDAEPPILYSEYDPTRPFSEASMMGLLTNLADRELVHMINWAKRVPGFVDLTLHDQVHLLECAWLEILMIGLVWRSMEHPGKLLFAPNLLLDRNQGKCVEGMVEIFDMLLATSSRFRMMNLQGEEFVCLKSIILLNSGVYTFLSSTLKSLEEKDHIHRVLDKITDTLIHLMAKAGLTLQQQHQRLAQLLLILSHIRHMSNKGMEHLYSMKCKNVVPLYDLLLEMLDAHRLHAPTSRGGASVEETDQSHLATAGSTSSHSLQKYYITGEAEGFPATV
Experiment: ATG_ERa_TRANS: Attagene TRANS-FACTORIAL HepG2 Assay for human Estrogen Receptor alpha (ERa) (AID 2282970)
Details: HepG2 Attagene TRANS ERa GAL4 reporter, mRNA
Description: ATG_TRANS is a cell-based, multiplexed-readout assay that uses HepG2, a human liver cell line, with measurements taken at 24 hours after chemical dosing in a 24-well plate.ATG_ERa_TRANS is one of 30 assay component(s) measured or calculated from the ATG_TRANS assay. […] This assay endpoint, ATG_ERa_TRANS, was analyzed in the positive analysis fitting direction relative to DMSO as the negative control and baseline of activity. […]
Inconclusive results are not listed. The source made the active and inactive calls. The calls were made as follows: active = hit-call score of the fitted dose curve at least 0.9, where 1 is the maximum; inconclusive = response in the unintended direction; inactive = score below 0.9.
Parameter call: string, one of Yes (active), No (inactive)

Consider the following illustrative entries.
C[N+](C)(C)CC(=O)O ... No
CC(C)(C)C(O)C(Oc1ccc(-c2ccccc2)cc1)n1cncn1 (configuration not stated) ... No
C=C(Cl)Cl ... No
CC(C)CCCCCCCOP(=O)(Oc1ccccc1)Oc1ccccc1 ... Yes

Called result for "BrCBr" No

Called result for "CSc1nc(N=[N+]=[N-])nc(NC(C)C)n1" No

Called result for "Oc1ccc(C2(c3ccc(O)cc3)c3ccccc3-c3ccccc32)cc1" No

Called result for "CC(C)(C)C(=O)CCl" No

Called result for "c1ccc(P(c2ccccc2)c2ccccc2)cc1" Yes

Called result for "CCCCOP(=O)(O)OCCCC" No

Called result for "COc1ncc(F)c2nc(S(=O)(=O)Nc3c(F)cccc3F)nn12" No

Called result for "Nc1ccccc1C(=O)Oc1ccc2ccccc2c1" Yes

Called result for "CCCCNP(N)(N)=S" No

Called result for "C[N+](C)=CCl" No

Called result for "O=C(O)COc1ccccc1" No

Called result for "CCCOC(=O)c1ccccc1C(=O)OCCC" Yes

Called result for "O=C(O)CCCc1ccc(N(CCCl)CCCl)cc1" No

* * *

Experiment: CCTE_Shafer_MEA_dev_AB: CCTE's Alamar Blue Assay for Cytotoxicity in the Neural Network Formation Assay, Shafer Lab (AID 2284083);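 also: resazurin reduction fluorescence as viability of cultured neurons; twelve days of exposure from plating with re-dosing on DIV 5 and 9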
Protocol: CCTE_Shafer_MEA_dev assay is conducted using Axion Biosystems 48 well microelectrode array (MEA) plates and Maestro recording system. Each well of the MEA plate contains a grid of 16 microelectrodes embedded in the culture surface. Electrically active cells, such as neurons, can be cultured over the electrodes, and electrical activity in these cells can be recorded extracellularly. […]
Inconclusive results are not listed. Activity calls are given as the source filed them. How the source made its calls: active means hit-call score of the fitted dose curve at least 0.9, where 1 is the maximum; inconclusive means response in the unintended direction; inactive means score below 0.9.
Parameter call: string, one of active, inactive

Consider the following illustrative entries.
[Cd+2].[Cl-].[Cl-] ... active
c1ccc2cc3c(cc2c1)-c1cccc2cccc-3c12 ... inactive
C[n+]1ccc(-c2cc[n+](C)cc2)cc1 ... active

Alright, here's another compound for you.
Called result for "CCOP(=O)(OCC)SCSC(C)(C)C" active

* * *

assay: TOX21_p53_BLA_p2_viability: Viability Assessment in the Tox21 HCT-116 p53 Agonism Beta-lactamase Assay, Phase 2 (AID 2283591);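 also: compound exposure lasted 16 h at 37 °C; actives lower the ATP signal meaning cytotoxicity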
Inconclusive results are not listed. Active and inactive are the calls of the source. The calls were made as follows: active = hit-call score of the fitted dose curve at least 0.9, where 1 is the maximum; inconclusive = response in the unintended direction; inactive = score below 0.9.
Parameter call: string, one of 1 (active), -1 (inactive)

Consider the following illustrative entries.
COc1cc(C[C@H](C)N)c(OC)cc1Br ... -1
O=C(O)/C=C\C(=O)O ... -1
BrCC(Br)C1CCC(Br)C(Br)C1 (stereo not given) ... -1
CC1OC(C)OC(C)O1 (stereo not given) ... -1

Called result for "Brc1ccc(Oc2ccc(Br)cc2Br)c(Br)c1" -1

* * *

experiment: ATG_PXRE_CIS: Attagene CIS-FACTORIAL HepG2 Assay for human Pregnane X Receptor Element (PXRE) (AID 2282957); conditions: HepG2 Attagene CIS-FACTORIAL PXRE reporter, mRNA; actives raise or lower the signal
Active and inactive are the calls of the source. How the source made its calls: active means hit-call score of the fitted dose curve at least 0.9, where 1 is the maximum; inactive means score below 0.9.
Parameter call: string, one of True for active, False for inactive

O=C1C=CC(=O)C=C1 ... True

Called result for "CC=Cc1ccc2c(c1)OCO2" False

Called result for "CCCOC(=O)c1ccccc1C(=O)OCCC" True

Called result for "O=c1[nH]c(Cl)c(Cl)cc1Cl" True

Called result for "CC1(C)C(=O)NC(=O)NC1=O" False

Called result for "CC(C)(Cl)Cl" False

Called result for "CC(=O)/C=C/c1ccccc1" True

Called result for "Cc1ccc(C)c2ccccc12" True

Called result for "C=CC(=O)OCCCCOC(=O)C=C" True

Called result for "Cc1ncc(C[n+]2csc(CCO)c2C)c(N)n1" False

Called result for "CC1(C)CC(=O)CC(C)(C)N1[O]" True

Called result for "CCCCCCCCCCCC#N" True

Called result for "Cc1ccccc1CCl" False
